Test: logP determination by HPLC on a reversed-phase column (C 18), EEC Directive 79/831 Annex V.A8
Type: physicochemical
Settings: [b] LC-MS, acidic range, pH 2.7, 0.1% aqueous formic acid and acetonitrile
propertyMeasured: logP

Examples from the recorded data:
C/C(=N\OCC(C)CON)c1cccc(-c2cccc(C)n2)n1 (racemic)    1.35^[b]
C/C(=N\OCCCON)c1cccc(C)n1    0.27^[b]

// for each compound in input: emit logP
1. C/C(=N\OCC(C)CON)c1cc(C(F)(F)F)cc(C)n1 (racemic)
2. C/C(=N\OCC(C)(C)CON)c1cc(C)cc(C)n1
3. C/C(=N\OCC(C)CON)c1cccc(C)n1 (racemic)

["2.33^[b]", "0.8^[b]", "0.7^[b]"]

Recorded values, source patent US20100022559A1.
